Biological target: FimHtrCl#4 (Escherichia coli, UniProt P08191, G94E/N91S/S99N/V48A)
Construct: coding for the lectin domain of FimH (residues 1-158) with a C-terminal 6-histidine tag; made in house; host or cells: E. coli HB101 (lacking the fim operon), periplasmic extract, plasmid pMAS146
Sequence (P08191 22-179 V48A/N91S/G94E/S99N): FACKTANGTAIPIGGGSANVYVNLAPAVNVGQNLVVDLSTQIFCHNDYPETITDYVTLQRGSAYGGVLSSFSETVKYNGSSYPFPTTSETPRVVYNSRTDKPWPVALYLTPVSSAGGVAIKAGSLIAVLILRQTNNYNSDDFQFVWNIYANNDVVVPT
Test: biochemical
Type: binding, E. coli UPEC (Cl#4) strain
Settings: Table 3, [3H]-mannose displacement assay (mannose measured directly); read-out: KD CI#4
Consider the cut-off 2 µM. If the recorded Kd is strictly smaller, the label is MET; if not, the label is NOT MET.

>  <Molecule>
OC[C@H]1O[C@H](O[C@@H]2[C@H](O)[C@@H](OC[C@H]3OC(O)[C@@H](O)[C@@H](O)[C@@H]3O)O[C@H](CO)[C@H]2O)[C@@H](O)[C@@H](O)[C@@H]1O (some centres unmarked) [man-(1,3)-man-(1,6)-man]

>  <Category>
MET

$$$$
>  <Molecule>
OC[C@H]1O[C@H](O[C@@H]2[C@@H](O[C@H]3[C@H](O)[C@@H](CO)OC(O)[C@H]3O)O[C@H](CO)[C@@H](O)[C@@H]2O)[C@@H](O)[C@@H](O)[C@@H]1O (some centres unmarked) [man-(1,2)-man-(1,3)-man]

>  <Category>
NOT MET

$$$$
>  <Molecule>
OC[C@H]1O[C@H](OC[C@H]2O[C@H](OC[C@H]3OC(O)[C@@H](O)[C@@H](O)[C@@H]3O)[C@@H](O)[C@@H](O)[C@@H]2O)[C@@H](O)[C@@H](O)[C@@H]1O (some centres unmarked) [man-(1,6)-man-(1,6)-man]

>  <Category>
NOT MET

$$$$

Input: # strict comparison: is reported Kd < 2 µM? input = OC[C@H]1O[C@H](O[C@@H]2[C@@H](O[C@@H]3C(O)O[C@H](CO)[C@@H](O)[C@@H]3O)O[C@H](CO)[C@@H](O)[C@@H]2O)[C@@H](O)[C@@H](O)[C@@H]1O (some centres unmarked) [man-(1,2)-man-(1,2)-man]
Output: NOT MET

Input: # strict comparison: is reported Kd < 2 µM? input = OC[C@H]1O[C@H](O[C@@H]2[C@@H](OC[C@H]3OC(O)[C@@H](O)[C@@H](O)[C@@H]3O)O[C@H](CO)[C@@H](O)[C@@H]2O)[C@@H](O)[C@@H](O)[C@@H]1O (some centres unmarked) [man-(1,2)-man-(1,6)-man]
Output: NOT MET

====

Target: FimHtrJ96 (Escherichia coli, UniProt P08191)
Construct: coding for the lectin domain of FimH (residues 1-158) with a C-terminal 6-histidine tag; made in house; host or cells: E. coli HB101 (lacking the fim operon), periplasmic extract, plasmid pPKL241
Sequence (P08191 22-179): as the sequence (P08191 22-179 V48A/N91S/G94E/S99N) above, with A27V, S70N, E73G, N78S counted along it
Test: biochemical
Format: binding, uropathogenic E. coli strain J96
Conditions: [3H]-mannose binding or displacement assay, FimHtrJ96; read-out: KD
Measured Parameter: Kd (nM)
Give bare numbers, in nM.

Looking up CCCCO[C@H]1O[C@H](CO)[C@@H](O)[C@H](O)[C@@H]1O [Butyl man, butyl mannoside] , I found its Kd recorded as 150

====

Target: FimHtrJ96 (Escherichia coli, UniProt P08191)
Construct: coding for the lectin domain of FimH (residues 1-158) with a C-terminal 6-histidine tag; made in house; host or cells: E. coli HB101 (lacking the fim operon), periplasmic extract, plasmid pPKL241
Assay: biochemical
Assay type: binding, uropathogenic E. coli strain J96
Details: quoted in b67 for comparison with docking; method not given; read-out: experimentally determined dissociation constant Kd
What pKd was measured for each of the following?
Give bare numbers, as −log10 of the molar value.

>  <Compound>
Cc1cc(=O)oc2cc(O[C@H]3O[C@H](CO)[C@@H](O)[C@H](O)[C@@H]3O)ccc12 [Umbelliferyl man, 4-Methylumbelliferyl α-mannoside]

>  <Target Entity>
FimHtrJ96 (Escherichia coli, UniProt P08191)

>  <pKd>
7.70

$$$$

Could you now consider this next compound?
Looking up O=[N+]([O-])c1ccc(OC2O[C@H](CO)[C@@H](O)[C@H](O)[C@@H]2O)cc1 (stereo partly drawn) [p-Nitrophenyl man, p-Nitrophenyl α-mannoside] , I found its pKd recorded as 7.36
